This listing pairs binders with measured pKd.
study.system: T1, Human serum albumin (HSA) (human, UniProt P02768 25-609)
T1 construct: also called human albumin; recombinant human albumin
T1 sequence (P02768 25-609): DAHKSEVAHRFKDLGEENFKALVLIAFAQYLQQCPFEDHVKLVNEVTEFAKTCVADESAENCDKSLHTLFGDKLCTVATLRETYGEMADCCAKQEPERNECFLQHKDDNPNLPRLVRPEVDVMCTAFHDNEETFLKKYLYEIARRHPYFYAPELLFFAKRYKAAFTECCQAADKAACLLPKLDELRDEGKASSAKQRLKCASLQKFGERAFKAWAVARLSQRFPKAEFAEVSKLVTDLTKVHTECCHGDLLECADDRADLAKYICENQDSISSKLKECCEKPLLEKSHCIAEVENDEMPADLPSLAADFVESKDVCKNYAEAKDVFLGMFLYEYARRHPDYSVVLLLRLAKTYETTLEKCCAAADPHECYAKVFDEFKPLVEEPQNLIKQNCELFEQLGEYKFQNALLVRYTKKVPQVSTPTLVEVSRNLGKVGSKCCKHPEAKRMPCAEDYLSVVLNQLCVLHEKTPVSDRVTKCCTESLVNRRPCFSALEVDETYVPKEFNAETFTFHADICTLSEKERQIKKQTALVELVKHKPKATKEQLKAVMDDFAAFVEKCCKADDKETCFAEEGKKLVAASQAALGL
method.summary: ELISA on coated human albumin, anti-human Fc HRP, A650, one site-total binding fit
Just so you know, pKd here is -log10 of the concentration in molar units; reply with that number alone.

Below, 3 binders whose answers are already recorded.
binder | pKd
4A01v3-4 (Fc fusion, also called Hz4A01v3-4; not shown: Human Fc carrier and its linker) VHH: EVQLVESGGGEVQPGGSLRLSCAASGFAFSTSGMSWVRQAPGKGLEWVSTISDDARIIRYAESVKGRFTISRDNAKNTLYLQMNSLRAEDTAVYYCATYRAGSRIGSYEDYYRGQGTLVTVKP | 9.82
4A01v9 (Fc fusion, not shown: a dimerising Fc or GST; small tags and cut ends, also called Hz4A01v9) VHH: EVQLVESGGGEVQPGGSLRLSCAASGFAFSTSGMVWVRQAPGKGLEWVSTISDDTRIIRYAESVKGRFTISRDNAKNTLYLQMNSLRAEDTAVYYCATYRAGSRIGSYEDYYRGQGTLVTVKP | 9.94
4A01v1 (Fc fusion, also called Hz4A01v1; not shown: Human Fc carrier and its linker) VHH: EVQLVESGGGEVQPGGSLRLSCAASGFAFSTSGMVWVRQAPGKGLEWVSTISDDSRIIRYAESVKGRFTISRDNAKNTLYLQMNSLRAEDTAVYYCATYRAGSRIGSYEDYYRGQGTLVTVKP | 9.86

So what does the record say about pKd for 4A01v3-5 (Fc fusion, also called Hz4A01v3-5; not shown: Human Fc carrier and its linker) VHH: EVQLVESGGGEVQPGGSLRLSCAASGFAFSTSGMVWYRQAPGKGLEWVSTISDDARIIRYAESVKGRFTISRDNAKNTLYLQMNSLRAEDTAVYYCATYRAGSRIGSYEDYYRGQGTLVTVKP ?
9.92

Moving on to 4A01v3-3 (Fc fusion, not shown: a dimerising Fc or GST; small tags and cut ends, also called Hz4A01v3-3) VHH: EVQLVESGGGEVQPGGSLRLSCAASGFAFSTSGMAWVRQAPGKGLEWVSTISDDARIIRYAESVKGRFTISRDNAKNTLYLQMNSLRAEDTAVYYCATYRAGSRIGSYEDYYRGQGTLVTVKP
9.89

Moving on to the next binder: 4A01-NNT-hFc (Fc fusion, Monomeric sdAb-Fc fusion (Fc S364N, Y407N, K409T = NNT); also called 1m4A01; anti-albumin sdAb 4A01) QVQLQESGGGLVQPGGSLRLSCAASGFAFSTSGMVWVRQATGKGLEWVSTISDDSRIIRYADSVNGRFTISRDNAENTLYLLMNSLKPEDTAVYYCATYRAGSRIGSYEDYYRGQGTQVTVSSGGPSVFLFPPKPKDTLMISRTPEVTCVVVDVSHEDPEVKFNWYVDGVEVHNAKTKPREEQYNSTYRVVSVLTVLHQDWLNGKEYKCKVSNKALPAPIEKTISKAKGQPREPQVYTLPPSRDELTKNQVNLTCLVKGFYPSDIAVEWESNGQPENNYKTTPPVLDSDGSFFLNSTLTVDKSRWQQGNVFSCSVMHEALHNHYTQKSLSLSPG
9.98

Same question for 4A01v3-7 (Fc fusion, also called Hz4A01v3-7; not shown: Human Fc carrier and its linker) VHH: EVQLVESGGGEVQPGGSLRLSCAASGFAFSTSGMVWVRQAPGKGLEWVSTISDDARIIRYAESVKGRFTISRDNAKNTVYLQMNSLRAEDTAVYYCATYRAGSRIGSYEDYYRGQGTLVTVKP please.
9.92

Now the same for 4A01v3-8 (Fc fusion, also called Hz4A01v3-8; not shown: Human Fc carrier and its linker) VHH: EVQLVESGGGEVQPGGSLRLSCAASGFAFSTSGMVWVRQAPGKGLEWVSTISDDARIIRYAESVKGRFTISRDNAKNTLYLQMNSLRAEDTAVYYCATYRAGSRIGSYEDYYWGQGTLVTVKP
9.87

Cool, now 4A01v3-1 (Fc fusion, not shown: a dimerising Fc or GST; small tags and cut ends, also called Hz4A01v3-1) VHH: EVQLVESGGGEVQPGGSLRLSCAASGFTFSTSGMVWVRQAPGKGLEWVSTISDDARIIRYAESVKGRFTISRDNAKNTLYLQMNSLRAEDTAVYYCATYRAGSRIGSYEDYYRGQGTLVTVKP
9.91

4A01v3 (Fc fusion, also called Hz4A01v3; not shown: Human Fc carrier and its linker) VHH: EVQLVESGGGEVQPGGSLRLSCAASGFAFSTSGMVWVRQAPGKGLEWVSTISDDARIIRYAESVKGRFTISRDNAKNTLYLQMNSLRAEDTAVYYCATYRAGSRIGSYEDYYRGQGTLVTVKP ?
9.90
